- EXPERIMENTAL SYSTEM: bovine trypsin (bovine, UniProt P00760 24-246)
- Sequence (P00760 24-246): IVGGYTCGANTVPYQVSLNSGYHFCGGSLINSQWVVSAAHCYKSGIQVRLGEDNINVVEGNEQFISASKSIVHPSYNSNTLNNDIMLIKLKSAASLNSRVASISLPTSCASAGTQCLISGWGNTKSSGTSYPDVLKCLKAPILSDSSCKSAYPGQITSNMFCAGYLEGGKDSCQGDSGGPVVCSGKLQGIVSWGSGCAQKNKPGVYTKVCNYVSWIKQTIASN
- MEASUREMENT NOTES: trypsin inhibition, BApNA substrate
Bridge positions count the residues as written; N and C are the ends. Square brackets hold non-standard residues; d marks the D form. Ends that are not written are not given here. Nle = CCCC[C@H](N)C(=O)O
pKi listing for selected binders.
Here pKi is given on a logarithmic scale as minus log10 of the concentration in mol/L.

Some entries whose results are on file:
# BINDER, VALUE OBSERVED
rows = [
    ("CGRHTKSIPPICF (disulfide 1-12 (inferred)) [BT56]", 7.70),
    ("CGAKGTKSIPPICFPD (disulfide 1-13 (inferred)) [BT2]", 6.19),
    ("ACTKSNPPQCR (disulfide 2-10 (inferred)) [BT68]", 6.28),
    ("CGRATRAIPPICF (disulfide 1-12 (inferred)) [BT22]", 6.00),
    ("CGRATKS[Nle]PPICF (disulfide 1-12 (inferred)) [BT28]", 7.22),
    ("CGRATKSIPPIAC (disulfide 1-13 (inferred)) [BT13]", 5.17),
]

In: May I ask what pKi has been recorded for CGAATKSIPPICFPD (disulfide 1-12 (inferred)) [BT7] ?
Out: 7.30

In: May I ask what pKi has been recorded for CGRVTKSIPPICF (disulfide 1-12 (inferred)) [BT51] ?
Out: 7.05

In: May I ask what pKi has been recorded for CERATKSIPPICF (disulfide 1-12 (inferred)) [BT78] ?
Out: 8.19

In: May I ask what pKi has been recorded for CGRATKSIPPICF (disulfide 1-12 (inferred)) [BT9] ?
Out: 8.00

In: May I ask what pKi has been recorded for CWTKSIPPKPC (disulfide 1-11 (inferred)) [BT36] ?
Out: 6.00

In: May I ask what pKi has been recorded for CRRATKSIPPICF (disulfide 1-12 (inferred)) [BT76] ?
Out: 8.00

In: May I ask what pKi has been recorded for CARATKSIPPICF (disulfide 1-12 (inferred)) [BT67] ?
Out: 8.00
